For each of the molecules below, state its Bliss excess.
- Tested on: NCI-H847 (Small Cell Lung Carcinoma)
- Protocol summary: Bliss excess, mean over the matrix (fraction); higher = more synergy;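 note: after 72 h of two-drug dosing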
Respond with the number and no other words.

Give recorded Bliss excess. Cc1c2c(nn1C)CSCc1cc(n(C)n1)CSc1cc(c3ccccc3c1)OCCCc1c(C(=O)O)n(C)c3c-2c(Cl)ccc13 [AZD5991] + C[C@@H]1COCCN1C2=NC(=NC(=C2)C3(CC3)[S@](=N)(=O)C)C4=C5C=CNC5=NC=C4 [AZD6738] (first compound max 1 µM, 7x7, partner max 10 µM)
0.0145

Give recorded Bliss excess. CN(C)CCCOc1ccc(-c2ccc3ncc4c(c3c2)n(C2CCOCC2)c(=O)n4C)cn1 [AZD0156] + CCN(CCO)CCCOc1ccc2c(Nc3cc(CC(=O)Nc4cccc(F)c4)[nH]n3)ncnc2c1 [AZD2811] (first compound max 1 µM, 7x7, partner max 1 µM)
-0.0122

Give recorded Bliss excess. COc1cccc(OCCCN)c1-c1cc(Nc2cnc(C#N)cn2)n[nH]1 [Prexasertib] + O=C(c1cc(Cc2n[nH]c(=O)c3ccccc23)ccc1F)N1CCN(C(=O)C2CC2)CC1 [Olaparib] (first compound max 1 µM, 7x7, partner max 10 µM)
-0.0027

Give recorded Bliss excess. CCN(CCO)CCCOc1ccc2c(Nc3cc(CC(=O)Nc4cccc(F)c4)[nH]n3)ncnc2c1 [AZD2811] + O=C(c1cc(Cc2n[nH]c(=O)c3ccccc23)ccc1F)N1CCN(C(=O)C2CC2)CC1 [Olaparib] (first compound max 1 µM, 7x7, partner max 10 µM)
-0.0464

Give recorded Bliss excess. CN(CCO)CC[C@H](CSc1ccccc1)Nc1ccc(S(=O)(=O)NC(=O)c2ccc(N3CCC([C@@H](O)c4ccccc4-c4ccc(Cl)cc4)CC3)cc2)cc1S(=O)(=O)C(F)(F)F [AZD4320] + C=CCn1c(=O)c2cnc(Nc3ccc(N4CCN(C)CC4)cc3)nc2n1-c1cccc(C(C)(C)O)n1 [AZD1775] (first compound max 1 µM, partner max 1 µM)
0.0494

Give recorded Bliss excess. Cc1c2c(nn1C)CSCc1cc(n(C)n1)CSc1cc(c3ccccc3c1)OCCCc1c(C(=O)O)n(C)c3c-2c(Cl)ccc13 [AZD5991] + Cc1cc2ncnn2cc1Nc1ncc2c(n1)n(C1CCOCC1)c(=O)n2C [AZD7648] (first compound max 1 µM, 7x7, partner max 10 µM)
0.0083

----------
- Tested on: SU-DHL-8 (B-Cell Non-Hodgkin's Lymphoma)
- Protocol summary: Bliss excess, mean over the matrix (fraction); higher = more synergy
Measure name: Bliss excess
Respond with the number and no other words.

Give recorded Bliss excess. CC1(C)CCC(CN2CCN(c3ccc(C(=O)NS(=O)(=O)c4ccc(NCC5CCOCC5)c([N+](=O)[O-])c4)c(Oc4cnc5[nH]ccc5c4)c3)CC2)=C(c2ccc(Cl)cc2)C1 [Venetoclax] + CN(C)CCCOc1ccc(-c2ccc3ncc4c(c3c2)n(C2CCOCC2)c(=O)n4C)cn1 [AZD0156] (first compound max 1 µM, 7x7, partner max 1 µM)
-0.0201

Give recorded Bliss excess. Cc1nc(Nc2ncc(C(=O)Nc3c(C)cccc3Cl)s2)cc(N2CCN(CCO)CC2)n1 [Dasatinib] + CC(=O)Nc1cccc(-n2c(=O)n(C3CC3)c(=O)c3c(Nc4ccc(I)cc4F)n(C)c(=O)c(C)c32)c1 [Trametinib] (first compound max 2 µM, 7x7, partner max 1 µM)
-0.0242

Give recorded Bliss excess. CC1(C)CCC(CN2CCN(c3ccc(C(=O)NS(=O)(=O)c4ccc(NCC5CCOCC5)c([N+](=O)[O-])c4)c(Oc4cnc5[nH]ccc5c4)c3)CC2)=C(c2ccc(Cl)cc2)C1 [Venetoclax] + C[C@@H]1COCCN1C2=NC(=NC(=C2)C3(CC3)[S@](=N)(=O)C)C4=C5C=CNC5=NC=C4 [AZD6738] (first compound max 1 µM, 7x7, partner max 10 µM)
-0.0176

Give recorded Bliss excess. COc1cccc(OCCCN)c1-c1cc(Nc2cnc(C#N)cn2)n[nH]1 [Prexasertib] + C=CCn1c(=O)c2cnc(Nc3ccc(N4CCN(C)CC4)cc3)nc2n1-c1cccc(C(C)(C)O)n1 [AZD1775] (first compound max 1 µM, partner max 1 µM)
-0.0202
